B1: library; numbered along this chain (parent)
chain: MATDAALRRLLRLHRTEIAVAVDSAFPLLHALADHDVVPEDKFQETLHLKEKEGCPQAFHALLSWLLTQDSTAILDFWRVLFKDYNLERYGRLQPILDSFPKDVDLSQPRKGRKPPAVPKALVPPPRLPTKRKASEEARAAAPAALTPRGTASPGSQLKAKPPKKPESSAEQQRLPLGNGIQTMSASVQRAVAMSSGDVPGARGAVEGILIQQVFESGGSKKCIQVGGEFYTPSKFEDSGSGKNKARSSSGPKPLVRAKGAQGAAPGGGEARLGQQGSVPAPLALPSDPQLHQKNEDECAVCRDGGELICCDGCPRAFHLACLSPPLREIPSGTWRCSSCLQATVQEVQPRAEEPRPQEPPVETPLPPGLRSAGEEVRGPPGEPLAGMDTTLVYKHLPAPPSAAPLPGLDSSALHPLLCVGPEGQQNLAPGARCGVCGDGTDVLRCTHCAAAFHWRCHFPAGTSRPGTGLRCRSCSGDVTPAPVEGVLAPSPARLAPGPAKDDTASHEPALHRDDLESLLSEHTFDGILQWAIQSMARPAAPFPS

# Variants of: B1
# runDescription: AIRE transcriptional activation functional score (insulin promoter-GFP; nonsense median 0, synonymous median 1) (normalised score); higher = higher AIRE activity (more reporter activation)
# assaySetup: with insulin promoter-GFP reporter in HEK293
Entries get a class label from measured AIRE transcriptional activation functional score. See ranges: bottom bin: < 0.5; middle bin: ≥ 0.5 and < 1; top bin: ≥ 1

Query string: Which bin, given its AIRE transcriptional activation functional score, does `H507I` occupy?
Result string: top bin

Query string: Which bin, given its AIRE transcriptional activation functional score, does `Y90E` occupy?
Result string: bottom bin

Query string: Which bin, given its AIRE transcriptional activation functional score, does `N244C` occupy?
Result string: bottom bin

Query string: Which bin, given its AIRE transcriptional activation functional score, does `D410L` occupy?
Result string: top bin

Query string: Which bin, given its AIRE transcriptional activation functional score, does `M388H` occupy?
Result string: top bin

Query string: Which bin, given its AIRE transcriptional activation functional score, does `H14G` occupy?
Result string: bottom bin

Query string: Which bin, given its AIRE transcriptional activation functional score, does `L87A` occupy?
Result string: bottom bin

Query string: Which bin, given its AIRE transcriptional activation functional score, does `L519E` occupy?
Result string: middle bin

Query string: Which bin, given its AIRE transcriptional activation functional score, does `R471S` occupy?
Result string: middle bin

Query string: Which bin, given its AIRE transcriptional activation functional score, does `V443Y` occupy?
Result string: middle bin

Query string: Which bin, given its AIRE transcriptional activation functional score, does `H458K` occupy?
Result string: bottom bin

Query string: Which bin, given its AIRE transcriptional activation functional score, does `A33K` occupy?
Result string: bottom bin

Query string: Which bin, given its AIRE transcriptional activation functional score, does `S220P` occupy?
Result string: bottom bin

Query string: Which bin, given its AIRE transcriptional activation functional score, does `S195K` occupy?
Result string: middle bin

Query string: Which bin, given its AIRE transcriptional activation functional score, does `S156C` occupy?
Result string: top bin

Query string: Which bin, given its AIRE transcriptional activation functional score, does `A61Q` occupy?
Result string: bottom bin

Query string: Which bin, given its AIRE transcriptional activation functional score, does `T72G` occupy?
Result string: bottom bin

Query string: Which bin, given its AIRE transcriptional activation functional score, does `T364M` occupy?
Result string: top bin

Query string: Which bin, given its AIRE transcriptional activation functional score, does `F77A` occupy?
Result string: bottom bin

Query string: Which bin, given its AIRE transcriptional activation functional score, does `P355D` occupy?
Result string: top bin

Query string: Which bin, given its AIRE transcriptional activation functional score, does `G424S` occupy?
Result string: top bin

Query string: Which bin, given its AIRE transcriptional activation functional score, does `A413H` occupy?
Result string: middle bin

Query string: Which bin, given its AIRE transcriptional activation functional score, does `D98A` occupy?
Result string: middle bin

Query string: Which bin, given its AIRE transcriptional activation functional score, does `P497A` occupy?
Result string: top bin

Query string: Which bin, given its AIRE transcriptional activation functional score, does `K114P` occupy?
Result string: bottom bin

Query string: Which bin, given its AIRE transcriptional activation functional score, does `P154W` occupy?
Result string: top bin

Query string: Which bin, given its AIRE transcriptional activation functional score, does `I309W` occupy?
Result string: top bin

Query string: Which bin, given its AIRE transcriptional activation functional score, does `K243L` occupy?
Result string: top bin

Query string: Which bin, given its AIRE transcriptional activation functional score, does `G150F` occupy?
Result string: top bin

Query string: Which bin, given its AIRE transcriptional activation functional score, does `L87G` occupy?
Result string: bottom bin

Query string: Which bin, given its AIRE transcriptional activation functional score, does `P380I` occupy?
Result string: top bin

Query string: Which bin, given its AIRE transcriptional activation functional score, does `L81P` occupy?
Result string: bottom bin

Query string: Which bin, given its AIRE transcriptional activation functional score, does `A58T` occupy?
Result string: bottom bin

Query string: Which bin, given its AIRE transcriptional activation functional score, does `I224W` occupy?
Result string: top bin

Query string: Which bin, given its AIRE transcriptional activation functional score, does `P326K` occupy?
Result string: middle bin

Query string: Which bin, given its AIRE transcriptional activation functional score, does `Y394G` occupy?
Result string: middle bin

Query string: Which bin, given its AIRE transcriptional activation functional score, does `Q157K` occupy?
Result string: middle bin

Query string: Which bin, given its AIRE transcriptional activation functional score, does `A452R` occupy?
Result string: middle bin

Query string: Which bin, given its AIRE transcriptional activation functional score, does `R92L` occupy?
Result string: bottom bin
